Origin of values: PubChem BioAssay (NCI)

Test system: A498 renal
assayName: NCI tumour cell line growth inhibition, 48 h
endpoint: TGI (µM)
Answer in µM, number only, no unit symbol.

Bench note: what TGI did COc1cc2c(cc1O)CC[C@@H]1[C@@H]2CC[C@]2(C)[C@@H](OCCN(C)C)CC[C@@H]12 show?
1.37

Next up:
Which TGI value belongs to C=CCc1cccc2cc(C(=O)Nc3ccccc3)c(=N)oc12 ?
50.3

* * *

Test system: SF-539 CNS
assayName: NCI tumour cell line growth inhibition, 48 h
Tag: label 1 if measured TGI is not below 30 µM, label 0 if it is.

Known results for compounds:
Does the reported TGI for O=C(O)C1OC1(c1cccc(Cl)c1)c1ccccc1Cl (stereo not drawn) fall at or above the 30 µM mark?
label 1

And COC(=O)CNS(=O)(=O)c1ccc(-c2c3nc(c(-c4ccc(S(=O)(=O)NCC(=O)OC)cc4)c4ccc([nH]4)c(-c4ccc(S(=O)(=O)NCC(=O)OC)cc4)c4nc(c(-c5ccc(S(=O)(=O)NCC(=O)OC)cc5)c5ccc2[nH]5)C=C4)C=C3)cc1 ?
label 1

Others:
Is reported TGI greater than or equal to 30 µM here: N#CC(=C1CCN(CCCC(=O)c2ccc(F)cc2)CC1)c1ccccc1
label 1

What about Fc1ccc(C(OCCN2CCC3CCC(C2)N3C/C=C/c2ccco2)c2ccc(F)cc2)cc1 (stereo not drawn) ?
label 0

What would you report for CCOC(=O)c1c2c(n(Cc3ccc(Cl)cc3Cl)c1C)-c1nc[nH]c1C(=O)C2=O ?
label 0

Subsequent entry: NC(=O)c1ccccc1Nc1ccc2nnc(-c3ccncc3)n2n1
label 0

Try this compound too: CC1=NN(c2cccc(Cl)c2)C2(SCC(=O)N2c2nc3ccccc3s2)/C1=C\c1cccs1 (stereo not drawn)
label 0

Another compound to check: CCOC(=O)C1=NN(c2ccc(C)cc2)C2=CC(C)=NN(C)C(=S)N21
label 1

* * *

Quick list: TGI per entry.
Test system: LOX IMVI melanoma
assayName: NCI tumour cell line growth inhibition, 48 h

Endpoint output: TGI of CC1CC[C@@]2(OC1)OC1C[C@H]3[C@@H]4CC=C5CC(OC6OC(CO)C(OC7OC(CO)C(O)C(OC8OCC(O)C(O)C8O)C7OC7OC(CO)C(O)C(O)C7O)C(O)C6O)CCC5(C)[C@H]4CCC3(C)C1[C@@H]2C (stereo not given in full) . Value?
8.53 µM

Record: CNC(=O)OCc1c(CO)nc(SC)n1C
> 100 µM

What about this compound? O=c1[nH]nc2ccccc2c1Cc1ccccc1
> 100 µM

Others:
Need TGI, item COc1ccc2c(c1)[nH]c1c(/C=C/c3ccccc3)nccc12
63.2 µM

Record: CCn1c(-c2ccc(N=NNc3ccc(-c4n[nH]c(=S)n4CC)cc3)cc2)n[nH]c1=S
> 100 µM

Can you check O=C1NC(=S)N/C1=C\c1ccc(Br)s1 next?
> 100 µM

Input O=C(CC(=O)C1=CNc2ccccc2S1)C(=O)Nc1ccc(Cl)cc1
> 50 µM

Next compound up: O=c1cc(-c2ccccc2F)[nH]c2ccc(N3CCCC3)cc12
> 100 µM

Now the compound O=C1NCc2ccccc2S(=O)(=O)n2cccc21
> 100 µM

Next compound up: COC(=O)/C(=N\NC(=O)C[N+](C)(C)C)C(C(=O)OC)C(=O)C(=O)Nc1ccccc1C(N)=O (stereo not given)
> 100 µM

* * *

Test system: HCT-116 colon
assayName: NCI tumour cell line growth inhibition, 48 h
Here, each record is paired with measured GI50 data.

Which GI50 is listed for Cc1cc(O)c(C2=NN(c3ccc(S(N)(=O)=O)cc3)C(c3ccccc3Cl)C2)cc1Cl (stereo not drawn) ?
1760 nM

CC1(N)CCN(c2cccnc2NC(=O)c2nc(-c3ncccc3C(F)(F)F)cnc2N)CC1 , same question.
13500 nM

Field entry: O=C(Nc1ccncc1)C(=O)c1cn(Cc2ccc(Cl)cc2)c2ccccc12
48 nM

Note, next up: COc1ccc(-c2nc(-c3ccccc3)c(-c3ccccc3)[nH]2)cc1OC1CCCC1
> 100000 nM

What do you get for CCCc1cc(=O)[nH]c(-n2nc(C)cc2C)n1 ?
3300 nM

# repeat for CCC(C)[C@H]1O[C@]2(C=C[C@@H]1C)C[C@@H]1C[C@@H](C/C=C(\C)[C@@H](OC3C[C@H](OC)C(O[C@H]4C[C@H](OC)[C@@H](O)[C@H](C)O4)[C@H](C)O3)[C@@H](C)/C=C/C=C3\CO[C@@H]4[C@H](O)C(C)=C[C@@H](C(=O)O1)[C@]34O)O2 (stereo partly drawn)
752 nM

Try the molecule CNCCCn1c2c(c3ccc([N+](=O)[O-])cc3c1=O)C(=O)c1cc(OC)cnc1-2
28.3 nM

Next, consider the following molecule.
Please report the recorded GI50 for COc1ccc(-c2nc(/C=N/Nc3cc(C)nc4ccc(Cl)cc34)c(C)o2)cc1 .
1820 nM

* * *

compounds and their reported TGI
Tested on: UO-31 renal
assayName: NCI tumour cell line growth inhibition, 48 h

Identify the measured TGI of NCCCCc1cc(O)c2c(c1O)C(=O)c1ccccc1C2=O for UO-31 renal.
20.3 µM

Lookup COc1ccc2c(c1)[n+]([O-])c(-c1ccc(OC)c(OC)c1)c(N)[n+]2[O-]
> 100 µM

* * *

Tested on: NCI-H460 lung
assayName: NCI tumour cell line growth inhibition, 48 h
endpoint: TGI

// returns reported TGI for input O=C(Cn1c(=O)c(-c2ccccc2)nc2ccccc21)Nc1ccc(F)cc1
> 100 µM

What would you report for CNCCCn1c2c(c3ccc([N+](=O)[O-])cc3c1=O)C(=O)c1cc(OC)cnc1-2 ?
0.185 µM

And what about the compound CC(C)(C)c1cc(C2=NNC(c3ccccc3)C2)cc(C(C)(C)C)c1O (centres undefined) ?
29.7 µM

Further cases:
What measured TGI goes with O=c1ccn([C@@H]2C[C@@H]2CO)c(=O)[nH]1 ?
> 100 µM

Same question, Cc1c(N2C(=O)CS(=O)(=O)C2c2cccc(Oc3ccccc3)c2)c(=O)n(-c2ccccc2)n1C (centres undefined) this time
> 100 µM

Input Clc1cc(Cl)cc(C=NC23CC4CC(CC(C4)C2)C3)c1
> 10 µM

Now consider C[C@]12CCc3sc(NCCc4ccccc4)nc3C1=CC[C@@H]1[C@@H]2CC[C@]2(C)C(=O)CC[C@@H]12 .
> 100 µM

Thanks! And CC(=O)OC[C@]12CC[C@@H](C(=O)CBr)[C@@H]1[C@H]1CC[C@@H]3[C@@]4(C)CCCNC(C)(C)[C@@H]4CC[C@@]3(C)[C@]1(C)CC2 ?
21.8 µM

* * *

Listed here are compounds together with their documented TGI.
System: SF-295 CNS
assayName: NCI tumour cell line growth inhibition, 48 h

Write down the reported TGI of Nc1ccccc1S(=O)(=O)c1ccccc1 , test system: SF-295 CNS.
> 100 µM

Continuing:
Give SF-295 CNS TGI for Cc1cc2c(C)nn(Cc3ccccc3)c2c(C(N)=O)c1C
> 100 µM

How about this compound: Nc1nc(SCCc2ccccc2)nc2nc3c(c(-c4ccccc4)c12)CCCC3
> 100 µM

Also CCN(CC)CCOc1ccc(CCc2cc(OC)c(OC)c(OC)c2)cc1 ?
50.5 µM

Can you check C[C@]12CCc3sc(NCCc4ccccc4)nc3C1=CC[C@@H]1[C@@H]2CC[C@]2(C)C(=O)CC[C@@H]12 next?
> 100 µM

Record: c1ccc(C(c2ccccc2)c2cccnc2)cc1
> 100 µM

* * *

Test system: HCT-15 colon
assayName: NCI tumour cell line growth inhibition, 48 h
endpoint: TGI (µM)
Give just the numeric value; µM need not be written.

// below: answered molecules
Reported TGI, molecule O=C1C(N2CC2)=C(N2CC2)C(=O)C(N2CC2)=C1N1CC1 : ____
0.901

Then what about the molecule CNC(=O)c1cccc2cc(Oc3ccnc4cc(OCC5(N)CC5)c(OC)cc34)ccc12 ?
20.2

Another molecule to look at: CCC1CN2C(=N1)c1ccccc1-c1cc(Cl)ccc12 (stereo not given)
11.5

Shifting focus to the molecule that follows.
Name the recorded TGI for Nc1ccc2c(SCc3ccc([N+](=O)[O-])cc3)c3ccccc3nc2c1 .
31.1

* * *

Overview of reported TGI across a group of compounds:
Tested on: MDA-MB-435
assayName: NCI tumour cell line growth inhibition, 48 h

Observe how each entry below is paired with its result.
What measured TGI goes with CC(C)=CCC/C(=C/CC/C(=C\CCc1ccoc1)C(=O)O)C(=O)O ?
> 100 µM

Next compound: CN(C)C(=S)/N=c1\ssc(=S)n1Cc1ccccc1
0.269 µM

Continuing:
Could you tell me which TGI is on file for Cc1cc(NCCN(C(C)C)C(C)C)nc(/N=C(\N)Nc2ccc(Cl)c(C(F)(F)F)c2)n1 ?
0.389 µM

Try this compound too: COc1cc(NC(C)CCCN)c2ncccc2c1 (stereo unspecified)
> 100 µM

One more compound: NC(=O)c1ccccc1Nc1ccc2nnc(-c3ccncc3)n2n1
26.9 µM

Next compound: CCn1c(SCC(=O)NNC(=S)Nc2ccc([N+](=O)[O-])cc2)nc2ccccc2c1=O
> 100 µM
